Values from ChEMBL document CHEMBL5291721

Below are AC50 values recorded for Type-1 angiotensin II receptor (Homo sapiens).

compound="CC(C)[N+](C)(CCC(C(N)=O)(c1ccccc1)c1ccccc1)C(C)C [ISOPROPAMIDE]" result="> 10 µM"

In: Please tell me: AC50 of NC(=O)c1ncn([C@@H]2O[C@H](CO)[C@@H](O)[C@H]2O)c1O , system Type-1 angiotensin II receptor (Homo sapiens)?; further: assay procedure not described here
Out: > 30 µM

In: Next record, please: O=C1CCC(N2C(=O)c3ccccc3C2=O)C(=O)N1 (stereo not drawn) [THALIDOMIDE]
Out: > 30 µM

###

Below are AC50 values recorded for Adenosine receptor A3 (Homo sapiens, UniProt P0DMS8).

In: Please tell me: AC50 of CN1C(=O)COc2c(C(=O)NC3CN4CCC3CC4)cc(Cl)cc21 (centres undefined) [AZASETRON] , system Adenosine receptor A3 (Homo sapiens, UniProt P0DMS8)?; further: assay procedure not described here
Out: > 30 µM

In: Next record, please: CC/C=C\C/C=C\C/C=C\CCCCCCCC(=O)O [LINOLENIC ACID]
Out: > 30 µM

In: Next record, please: CC(C)Cc1ccc(CC(=O)O)cc1 [IBUFENAC]
Out: > 30 µM

In: Next record, please: NC(=O)C[S+]([O-])C(c1ccccc1)c1ccccc1 (centres undefined) [MODAFINIL]
Out: 13.4 µM

In: Next record, please: CN1CCN(C(=O)OC2c3nccnc3C(=O)N2c2ccc(Cl)cn2)CC1 (centres undefined) [ZOPICLONE]
Out: 18.3 µM

In: Next record, please: CN1CCC2=C(C1)C(c1ccccc1)c1ccccc12 (centres undefined) [PHENINDAMINE]
Out: > 10 µM

In: Next record, please: C[N+](C)(C)CCOC(N)=O [CARBAMOYLCHOLINE]
Out: > 10 µM

In: Next record, please: O=C(O)Cc1cn(-c2ccccc2)nc1-c1ccc(Cl)cc1 [LONAZOLAC]
Out: > 30 µM

In: Next record, please: CC[C@H](C)C(=O)O[C@H]1C[C@H](O)C=C2C=C[C@H](C)[C@H](CC[C@@H](O)C[C@@H](O)CC(=O)O)[C@H]21 [PRAVASTATIN]
Out: > 30 µM

###

assayed_target: 5-hydroxytryptamine receptor 2B (Homo sapiens, UniProt P41595); further: assay procedure not described here
Sequence (P41595 whole entry): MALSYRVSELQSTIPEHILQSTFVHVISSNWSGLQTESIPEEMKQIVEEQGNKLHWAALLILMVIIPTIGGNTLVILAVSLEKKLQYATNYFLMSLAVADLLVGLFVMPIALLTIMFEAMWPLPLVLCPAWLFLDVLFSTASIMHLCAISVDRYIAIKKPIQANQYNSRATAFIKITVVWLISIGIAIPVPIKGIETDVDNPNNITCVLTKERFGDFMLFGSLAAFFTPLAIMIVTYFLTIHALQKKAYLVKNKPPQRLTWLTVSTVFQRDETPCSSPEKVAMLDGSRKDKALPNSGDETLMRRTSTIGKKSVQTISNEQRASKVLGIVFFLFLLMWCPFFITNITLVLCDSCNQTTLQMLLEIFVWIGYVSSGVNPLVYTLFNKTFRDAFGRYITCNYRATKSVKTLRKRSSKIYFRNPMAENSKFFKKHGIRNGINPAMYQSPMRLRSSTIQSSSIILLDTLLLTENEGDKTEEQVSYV
Format: functional, cell-based
// reported AC50 for each item listed

Some solved entries appear below for comparison.
compound="CN1C(=O)N(C)C2C1N(C)C(=O)N2C (centres undefined)" result="> 30 µM"
compound=CCC1(C2=CCCCCC2)C(=O)NC(=O)NC1=O result="> 10 µM"
compound=COc1ccc2c(c1)C(=O)N(CCc1ccc(S(=O)(=O)NC(=O)NC3CCCCC3)cc1)C(=O)C2(C)C result="> 30 µM"

In: Please tell me: AC50 of CN(C/C=C/c1ccccc1)Cc1cccc2ccccc12 , system 5-hydroxytryptamine receptor 2B (Homo sapiens, UniProt P41595)?; further: assay procedure not described here
Out: > 10 µM

###

Below are AC50 values recorded for Type-1 angiotensin II receptor (Homo sapiens).

Some solved entries appear below for comparison.
compound="O=C(OCCN1CCOCC1)c1cccnc1Nc1cccc(C(F)(F)F)c1 [MORNIFLUMATE]" result="> 30 µM"
compound=CN[C@@H]1[C@H](O)[C@H](NC)[C@H]2O[C@@]3(O)C(=O)C[C@@H](C)O[C@H]3O[C@@H]2[C@H]1O result="> 10 µM"
compound="O=C(CCCCC(=O)Nc1c(I)cc(I)c(C(=O)O)c1I)Nc1c(I)cc(I)c(C(=O)O)c1I [IODIPAMIDE]" result="> 10 µM"

In: What value of AC50 has been reported for the following compound? Cc1ccc(-c2nc3ccc(C)cn3c2CC(=O)N(C)C)cc1
Out: > 30 µM

In: Next record, please: CC(C(=O)O)c1ccc(N2CC=CC2)c(Cl)c1 (stereo not drawn)
Out: > 30 µM

In: Next record, please: CN1CCCN=C1COC(=O)C(O)(c1ccccc1)C1CCCCC1 (stereo not drawn)
Out: > 10 µM

In: Next record, please: CCCCCCC(C)(C)c1cc(O)c2c(c1)OC(C)(C)C1CCC(=O)CC21 (stereo not drawn)
Out: > 30 µM
